// provenance: patent US20160222131A1

Tested on: Bethyl antibody
test_details: Reactivity of ATRX C-terminal peptides with the Bethyl antibody
Type: binding
condition_notes: KLH-coupled peptides, FIG. 11
Non-standard residues stand in square brackets, D forms with d. No end group written: not given here. Arg(Me2s) = CN=C(NC)NCCC[C@H](N)C(=O)O; pS = N[C@@H](COP(=O)(O)O)C(=O)O
observed_property: reactivity with the Bethyl antibody

SKNPGPSQG (SKNPGP[pS]QG) [Peptide 2487P, amino acids 2481-2489 of ATRX, phosphorylated at serine 2487] :: did not react
APPPMRSKNP [Peptide 2480Ra, amino acids 2475-2484 of ATRX, asymmetrically methylated at arginine 2480] :: reacted
APPPMRSKNP [2480Rs] (APPPM[Arg(Me2s)]SKNP) [Peptide 2480Rs, amino acids 2475-2484 of ATRX, symmetrically methylated at arginine 2480] :: did not react
SKNPGPSQGKSM [Peptide 2490Ac, amino acids 2481-2492 of ATRX, acetylated at lysine 2490] :: reacted
APPMRSKNPGPSQGKSM [amino acids 2475-2492 of ATRX, no modification, coupled to the carrier KLH] :: reacted

Q: Indicate its recorded reactivity with the Bethyl antibody; the sequence in question is PPPLQRAPPM [Peptide 2474, amino acids 2469-2479 of ATRX, no modification, coupled to KLH]
Ans: did not react
